Data origin: the NIST ThermoML archive (doi:10.1016/j.jct.2007.06.020)

Listed below: molar enthalpy values for each entry.
MEASUREMENT_DESCRIPTION: molar enthalpy of vaporization or sublimation
CONDITION_NOTES: 298.15 K; Liquid; Calvet microcalorimetry
# number then unit; no other words

Sample records with molar enthalpy:
>>> measurement("Cc1ccsc1C#N")
"13 kcal/mol"
>>> measurement("N#Cc1cccs1")
"11.8 kcal/mol"
>>> measurement("N#CCc1cccs1")
"14.5 kcal/mol"
>>> measurement("N#Cc1ccsc1")
"12.3 kcal/mol"

Field: next compound
So, `N#CCc1ccsc1` ? Its molar enthalpy was 14.6 kcal/mol
